target: human JAK2 (a.a. 828-1132) (Homo sapiens, UniProt O60674); construct: JAK2 (a.a. 828-1132); His tag (N); made in house; host or cells: insect cells (baculovirus); assay: In vitro JAK kinase assay (HTRF, phosphorylation of a biotinylated peptide), JAK2; assay type: biochemical; conditions: Table B1
Sequence (O60674 828-1132): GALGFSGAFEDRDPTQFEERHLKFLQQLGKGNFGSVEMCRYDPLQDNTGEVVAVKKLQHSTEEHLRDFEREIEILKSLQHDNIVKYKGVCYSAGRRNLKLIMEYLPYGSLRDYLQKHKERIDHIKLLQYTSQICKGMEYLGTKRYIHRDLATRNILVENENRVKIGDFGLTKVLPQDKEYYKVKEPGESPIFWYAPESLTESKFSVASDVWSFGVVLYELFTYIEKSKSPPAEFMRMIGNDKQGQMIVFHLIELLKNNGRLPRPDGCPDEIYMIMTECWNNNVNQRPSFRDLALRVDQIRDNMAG
pIC50: −log10 of the molar value. Counter-ions that a name gives are not always drawn.
Observable: pIC50

(a) COC(=O)c1ccc2cc1CCc1cccc(c1)Nc1ncc(Cl)c(n1)N2 [Example B22, trifluoroacetate]
(b) O=C(NCCNS(=O)(=O)c1ccc(Cl)nc1)Nc1ccc2cc1CCc1cccc(c1)Nc1ncc(Cl)c(n1)N2 [Example B331, trifluoroacetate]
(c) CS(=O)(=O)N1CC[C@H](NC(=O)Nc2ccc3cc2CCc2cccc(c2)Nc2ncc(Cl)c(n2)N3)C1 [Example B172, trifluoroacetate]
(d) O=C(Nc1ccc2cc1CCc1cccc(c1)Nc1ncc(Cl)c(n1)N2)NC1CCNCC1 [Example B181, dihydrochloride]
(e) O=C(Nc1ccc2cc1CCc1cccc(c1)Nc1ncc(Cl)c(n1)N2)N[C@H]1CCN(Cc2ccccc2)C1 [Example B173, bis(trifluoroacetate)]
(Q) Can you order these entries from above by pIC50? Start with the largest number and work down. Give the labels in the order specified.
(A) c, b, a, e, d
